# Tested on: Histophilus somni
# test.details: minimum inhibitory concentration (MIC)
# condition: isolate (source animal id): 105
Some compounds, each annotated with its measured minimum inhibitory concentration.

>  <smiles.notation>
CCCNC[C@]1(O)[C@H](C)O[C@@H](O[C@H]2[C@H](C)[C@@H](O[C@@H]3O[C@H](C)C[C@H](N(C)C)[C@H]3O)[C@](C)(O)C[C@@H](C)CN[C@H](C)[C@@H](O)[C@](C)(O)[C@@H](CC)OC(=O)[C@@H]2C)C[C@@]1(C)OC

>  <minimum inhibitory concentration>
≤ 8 µg/mL

$$$$
>  <smiles.notation>
COc1cc(Cc2cnc(N)nc2N)cc(OC)c1OC.Cc1cc(NS(=O)(=O)c2ccc(N)cc2)no1

>  <minimum inhibitory concentration>
≤ 2 µg/mL

$$$$
>  <smiles.notation>
CCN1CCN(c2cc3c(cc2F)c(=O)c(C(=O)O)cn3C2CC2)CC1

>  <minimum inhibitory concentration>
≤ 0.12 µg/mL

$$$$
>  <smiles.notation>
NC[C@@H]1O[C@H](O[C@H]2[C@@H](O)[C@H](O[C@@H]3[C@@H](O)[C@H](N)C[C@H](N)[C@H]3O[C@H]3O[C@H](CN)[C@@H](O)[C@H](O)[C@H]3N)O[C@@H]2CO)[C@H](N)[C@@H](O)[C@@H]1O

>  <minimum inhibitory concentration>
32 µg/mL

$$$$

====

# Test system: Pasteurella multocida
# test.details: minimum inhibitory concentration (MIC)
# condition: isolate (source animal id): 117
Some compounds, each annotated with its measured minimum inhibitory concentration.
measured.attribute: minimum inhibitory concentration (µg/mL)

>  <compound>
CC1(C)S[C@@H]2[C@H](NC(=O)Cc3ccccc3)C(=O)N2[C@H]1C(=O)O [Penicillin]

>  <system.under.test>
Pasteurella multocida

>  <measured.attribute>
minimum inhibitory concentration

>  <relation.qualifier>
=

>  <endpoint.value>
0.25

$$$$
>  <compound>
CC[C@H]1OC(=O)C[C@@H](O)[C@H](C)[C@@H](O[C@@H]2O[C@H](C)[C@@H](O[C@H]3C[C@@](C)(O)[C@@H](O)[C@H](C)O3)[C@H](N(C)C)[C@H]2O)[C@@H](CC=O)C[C@@H](C)C(=O)/C=C/C(C)=C/[C@@H]1CO[C@@H]1O[C@H](C)[C@@H](O)[C@@H](OC)[C@H]1OC [Tylosin]

>  <system.under.test>
Pasteurella multocida

>  <measured.attribute>
minimum inhibitory concentration

>  <relation.qualifier>
>

>  <endpoint.value>
32

$$$$
>  <compound>
CCN1CCN(c2cc3c(cc2F)c(=O)c(C(=O)O)cn3C2CC2)CC1 [Enrofloxacin]

>  <system.under.test>
Pasteurella multocida

>  <measured.attribute>
minimum inhibitory concentration

>  <relation.qualifier>
>

>  <endpoint.value>
2

$$$$
>  <compound>
CC[C@H]1OC(=O)C[C@@H](O)[C@H](C)[C@@H](O[C@@H]2O[C@H](C)[C@@H](O)[C@H](N(C)C)[C@H]2O)[C@@H](CCN2CCCCC2)C[C@@H](C)C(=O)/C=C/C(C)=C/[C@@H]1CN1CCCCC1 [Tildipirosin]

>  <system.under.test>
Pasteurella multocida

>  <measured.attribute>
minimum inhibitory concentration

>  <relation.qualifier>
>

>  <endpoint.value>
16

$$$$
>  <compound>
CCCN1C[C@H](C)[C@@H](O)[C@](C)(O)[C@@H](CC)OC(=O)[C@H](C)[C@@H](O[C@H]2C[C@@](C)(OC)[C@@H](O)[C@H](C)O2)[C@H](C)[C@@H](O[C@@H]2O[C@H](C)C[C@H](N(C)C)[C@H]2O)[C@](C)(O)C[C@H]1C [Gamithromycin]

>  <system.under.test>
Pasteurella multocida

>  <measured.attribute>
minimum inhibitory concentration

>  <relation.qualifier>
=

>  <endpoint.value>
8

$$$$
